Listing of recorded Papp by entry.
# assayExplanation: Caco-2 permeability assay (CacoReady kit)
# Type: in vitro ADME
# assayContext: human, Caco-2, Caco-2 barrier, CacoReady kit; above 1×10^−6 cm/s classified as permeable

Examples from the recorded data:
[
  {
    "compound": "CNC(=O)C(=O)CC[C@H](NC(=O)c1coc2ccccc12)C(=O)Nc1cccn(CC(=O)NC2C3CC4CC(C3)CC2C4)c1=O (stereo partly drawn) [II-136]",
    "Papp": "1 to 10 ×10⁻⁶ cm/s"
  },
  {
    "compound": "CNC(=O)C(=O)CC[C@H](NC(=O)c1ccc(Br)s1)C(=O)Nc1cccn(CC(=O)NC2C3CC4CC(C3)CC2C4)c1=O (stereo partly drawn) [II-23]",
    "Papp": "1 to 10 ×10⁻⁶ cm/s"
  },
  {
    "compound": "Cc1c(C(=O)N[C@@H](CCC(=O)C(N)=O)C(=O)Nc2cccn(CC(=O)N[C@@H]3C[C@H]4CC[C@@H]3C4)c2=O)oc2ccccc12 [II-147]",
    "Papp": "1 to 10 ×10⁻⁶ cm/s"
  },
  {
    "compound": "CNC(=O)C(=O)CC[C@H](NC(=O)c1oc2ccccc2c1C)C(=O)Nc1cccn(CC(=O)NCC23CC4CC(CC(C4)C2)C3)c1=O [II-87]",
    "Papp": "1 to 10 ×10⁻⁶ cm/s"
  },
  {
    "compound": "Cn1nncc1C(=O)N[C@@H](CCC(=O)C(N)=O)C(=O)Nc1cccn(CC(=O)NC2C3CC4CC(C3)CC2C4)c1=O (stereo partly drawn) [II-127]",
    "Papp": "< 1 ×10⁻⁶ cm/s"
  }
]

# next compound below
Report Papp for NC(=O)C(=O)CC[C@H](NC(=O)c1cc2ccccc2o1)C(=O)Nc1cccn(CC(=O)N[C@@H]2C[C@H]3CC[C@@H]2C3)c1=O [II-146] please.
1 to 10 ×10⁻⁶ cm/s
